Origin of values: patent US5478828A

- SYSTEM NAME: 5-HT1A receptor
- TEST METHOD NOTES: In vitro receptor binding, 5-HT1A
pIC50: −log10 of the molar value.
QUANTITY MEASURED: pIC50

COc1cccc(CN2CCN([C@H]3CC[C@](O)(c4ccc5c(c4)OCO5)CC3)CC2)c1; 8.67

(I) CO[C@]1(c2ccc3c(c2)OCO3)CC[C@H](N2CCC(Cc3cc(F)ccc3F)CC2)CC1
(II) COc1cccc(CC2CCN([C@H]3CC[C@](OC)(c4ccc5c(c4)OCO5)CC3)CC2)c1
(III) O[C@]1(c2ccc3c(c2)OCO3)CC[C@H](N2CCC(Cc3cc(F)ccc3F)CC2)CC1
Q: Arrange these 3 compounds in increasing order of pIC50. I would appreciate it if you listed the labels in the requested order.
Result: I, II, III

* * *

- SYSTEM NAME: D2 receptor (Bos taurus)
- Construct: from tissue
- Sequence (P20288 whole entry): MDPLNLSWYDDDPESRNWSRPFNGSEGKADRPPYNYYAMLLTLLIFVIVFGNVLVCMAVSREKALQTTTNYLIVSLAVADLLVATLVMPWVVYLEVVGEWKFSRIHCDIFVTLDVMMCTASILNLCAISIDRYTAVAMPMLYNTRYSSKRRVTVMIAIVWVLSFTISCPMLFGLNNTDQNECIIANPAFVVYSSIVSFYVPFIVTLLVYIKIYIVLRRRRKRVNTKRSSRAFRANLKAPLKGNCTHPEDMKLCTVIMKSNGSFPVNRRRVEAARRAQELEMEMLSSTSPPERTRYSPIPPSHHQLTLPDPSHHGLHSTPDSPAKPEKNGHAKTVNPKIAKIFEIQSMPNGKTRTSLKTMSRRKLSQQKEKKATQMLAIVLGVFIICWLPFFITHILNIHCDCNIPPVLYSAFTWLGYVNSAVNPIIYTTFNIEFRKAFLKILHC
- TEST METHOD NOTES: In vitro receptor binding, D2
- TEST CONTEXT: in vitro; read-out: D2 receptor binding IC50
QUANTITY MEASURED: IC50 (nM)
Field format: number, assumed nM, no unit text.

COc1cccc(CN2CCN([C@H]3CC[C@](O)(c4ccc5c(c4)OCO5)CC3)CC2)c1; 1040

Alright, here's another compound for you.
Q: Bench note: what IC50 did COc1ccc([C@]2(O)CC[C@@H](N3CCN(Cc4ccccc4)CC3)CC2)cc1 show?
Result: 1830
